- testedTarget: NEK7 (Homo sapiens (Human), UniProt Q8TDX7+Q96SW2)
- Sequence (Q8TDX7 whole entry): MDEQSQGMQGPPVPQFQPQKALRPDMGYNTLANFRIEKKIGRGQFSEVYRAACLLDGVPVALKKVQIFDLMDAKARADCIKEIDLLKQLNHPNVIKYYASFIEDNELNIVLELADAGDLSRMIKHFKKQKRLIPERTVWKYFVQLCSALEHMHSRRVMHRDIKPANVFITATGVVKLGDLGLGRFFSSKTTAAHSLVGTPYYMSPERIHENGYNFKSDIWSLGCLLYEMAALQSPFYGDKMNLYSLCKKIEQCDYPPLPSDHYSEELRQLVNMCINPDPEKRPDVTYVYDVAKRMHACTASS
- Sequence (Q96SW2 whole entry): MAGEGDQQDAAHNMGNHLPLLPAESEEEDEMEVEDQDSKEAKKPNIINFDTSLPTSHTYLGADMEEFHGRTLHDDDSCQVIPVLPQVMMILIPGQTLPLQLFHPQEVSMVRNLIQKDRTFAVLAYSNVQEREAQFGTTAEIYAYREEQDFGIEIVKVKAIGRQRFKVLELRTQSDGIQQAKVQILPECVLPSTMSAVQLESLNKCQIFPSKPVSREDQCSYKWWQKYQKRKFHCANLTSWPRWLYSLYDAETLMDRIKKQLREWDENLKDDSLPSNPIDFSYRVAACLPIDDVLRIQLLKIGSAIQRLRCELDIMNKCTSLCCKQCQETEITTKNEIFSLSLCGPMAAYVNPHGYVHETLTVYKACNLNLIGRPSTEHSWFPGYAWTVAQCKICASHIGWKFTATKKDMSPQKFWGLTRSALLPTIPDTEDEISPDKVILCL
- Sequence (Q16531 2-1140 partner): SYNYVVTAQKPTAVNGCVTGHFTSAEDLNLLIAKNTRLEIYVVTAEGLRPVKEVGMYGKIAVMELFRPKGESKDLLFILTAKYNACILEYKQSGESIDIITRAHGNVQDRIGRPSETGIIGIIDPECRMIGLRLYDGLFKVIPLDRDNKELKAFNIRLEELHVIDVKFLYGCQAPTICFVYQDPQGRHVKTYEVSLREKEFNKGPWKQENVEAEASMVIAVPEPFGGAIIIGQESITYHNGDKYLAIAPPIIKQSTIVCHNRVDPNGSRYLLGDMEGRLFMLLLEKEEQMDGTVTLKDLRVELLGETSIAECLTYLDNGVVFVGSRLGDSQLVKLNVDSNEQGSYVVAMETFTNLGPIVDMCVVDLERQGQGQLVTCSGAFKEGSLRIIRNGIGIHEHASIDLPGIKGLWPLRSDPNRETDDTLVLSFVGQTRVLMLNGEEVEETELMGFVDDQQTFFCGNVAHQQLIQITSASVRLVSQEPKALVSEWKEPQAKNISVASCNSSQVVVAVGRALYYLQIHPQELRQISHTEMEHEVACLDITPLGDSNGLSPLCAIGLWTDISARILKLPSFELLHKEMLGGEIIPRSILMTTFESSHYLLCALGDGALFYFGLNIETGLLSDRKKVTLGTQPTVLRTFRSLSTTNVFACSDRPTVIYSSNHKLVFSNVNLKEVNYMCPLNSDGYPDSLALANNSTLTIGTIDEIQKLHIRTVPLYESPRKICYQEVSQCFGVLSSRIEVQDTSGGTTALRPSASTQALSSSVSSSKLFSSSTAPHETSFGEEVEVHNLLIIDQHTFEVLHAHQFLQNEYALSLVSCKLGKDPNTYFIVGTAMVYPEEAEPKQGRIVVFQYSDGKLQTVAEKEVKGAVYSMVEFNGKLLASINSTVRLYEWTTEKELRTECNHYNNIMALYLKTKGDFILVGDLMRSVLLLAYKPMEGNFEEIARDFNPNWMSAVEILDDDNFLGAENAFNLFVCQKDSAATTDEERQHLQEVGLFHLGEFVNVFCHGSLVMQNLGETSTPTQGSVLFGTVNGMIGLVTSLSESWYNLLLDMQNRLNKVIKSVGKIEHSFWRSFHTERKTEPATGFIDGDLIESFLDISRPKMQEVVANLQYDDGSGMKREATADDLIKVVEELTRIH
- measurementProtocol: NEK7 NanoBiT degradation assay in Cal51 NEK7 NanoBiT cell line
- Type: cell-based
- testParameters: Cal51 NEK7 NanoBiT cells, 24 hours; read-out: NEK7 NanoBiT DC50
parameter: DC50 (nM)
Lab book: enter the figure in nM, no units written.

See these solved cases before continuing.
Cc1ccc(C(C)(C)C(=O)NCc2cc(Cl)c(C3CCC(=O)NC3=O)c(Cl)c2)nc1 (stereo not shown) [Compound 89]	6
CC(C)(C(=O)NCc1cc(Cl)c(C2CCC(=O)NC2=O)c(Cl)c1)c1cnc(CC(F)F)cn1 (stereo not shown) [Compound 240]	79
CC(C)(C(=O)NCc1cc(Cl)c(C2CCC(=O)NC2=O)c(Cl)c1)c1cc2cccnc2cn1 (stereo not shown) [Compound 190]	6
Cc1nnc(C(C)(C)C(=O)NCc2cc(Cl)c([C@@H]3CCC(=O)NC3=O)c(Cl)c2)o1 (single isomer, unassigned) [Compound 224]	32
O=C1CCC(c2c(Cl)cc(CNC(=O)C3(c4ccccc4)CCOC3)cc2Cl)C(=O)N1 (stereo not shown) [Compound 127]	5

Qu. Give DC50 for this entry on NEK7 (Homo sapiens (Human), UniProt Q8TDX7+Q96SW2): Cc1cnc(C(C)(C)C(=O)NCc2cc(C)c(C3CCC(=O)NC3=O)c(Cl)c2)nc1 (stereo not shown) [Compound 271]
Ans. 213

----------
- testedTarget: NEK7 (Homo sapiens (Human), UniProt Q8TDX7+Q96SW2)
- measurementProtocol: NEK7 NanoBiT degradation assay in Cal51 NEK7 NanoBiT cell line
- Format: cell-based
- testParameters: Cal51 NEK7 NanoBiT cells, 24 hours; read-out: NEK7 NanoBiT DC50
parameter: DC50
Lab note: write values as number then unit, every time.

See these solved cases before continuing.
CC(C)(C(=O)NCc1cc(Cl)c(C2CCC(=O)NC2=O)c(Cl)c1)c1cccc(F)c1 (stereo not shown)	1 nM
Cn1ccc(C2(C(=O)NCc3cc(Cl)c(C4CCC(=O)NC4=O)c(Cl)c3)CCC2)cc1=O (stereo not shown)	53 nM
Cc1cc(CNC(=O)C(C)(C)c2ccncc2)cc(Cl)c1C1CCC(=O)NC1=O (stereo not shown)	28 nM

Then this molecule:
Qu. Read the entry CC1(C(=O)NCc2cc(Cl)c(C3CCC(=O)NC3=O)c(Cl)c2)COc2ccccc2O1 (stereo not shown) and write its reported DC50.
Ans. 4 nM

----------
Item-by-item account of Dmax
- testedTarget: NEK7 (Homo sapiens (Human), UniProt Q8TDX7+Q96SW2)
- measurementProtocol: NEK7 NanoBiT degradation assay in Cal51 NEK7 NanoBiT cell line
- Format: cell-based
- testParameters: CAL-51; Cal51 NEK7 NanoBiT cells, 24 hours; read-out: NEK7 NanoBiT Dmax
Lab book: enter the figure in %, no units written.

Cc1cc(C(C)(C)C(=O)NCc2cc(Cl)c(C3CCC(=O)NC3=O)c(Cl)c2)ccn1 (stereo not drawn) [Compound 95]	92
CC(C)(C(=O)NCc1ccc(C2CCC(=O)NC2=O)c(Cl)c1)c1ccc(OC(F)(F)F)cc1 (stereo not drawn) [Compound 100]	91

Qu. Read the entry CC(F)(F)c1cnc(C(C)(C)C(=O)NCc2cc(Cl)c(C3CCC(=O)NC3=O)c(Cl)c2)cn1 (stereo not drawn) [Compound 263] and write its reported Dmax.
Ans. 90
